- TEST_PARAMETERS: a range is the spread between reports
Listed next: entries and their corresponding melting point.

> print(dat)
           compound  measured.quantity       meas.value
1  CCOc1cccc(OCC)c1      melting point    11 to 12.4 °C
2  FC(F)(F)C(F)(F)F      melting point  -101 to -100 °C

### Prompt Requested read-out: melting point. Entry: CC(C)=CC=C(C)C
### Response 12 to 13 °C

### Prompt One more compound: CC(=O)Oc1cccc2ccccc12
### Response 44.5 to 45 °C

### Prompt What do we get for CCCCCCI ?
### Response -75 to -74.2 °C

### Prompt Field entry: CC(=O)OC(OC(C)=O)c1ccc([N+](=O)[O-])o1
### Response 90 to 91 °C

### Prompt Subsequent entry: Cc1ccc([N+](=O)[O-])cc1Br
### Response 76 to 78 °C

### Prompt And then Cc1cc(O)c2ccccc2n1 , what is it?
### Response 234 to 235 °C

====

- TEST_PARAMETERS: a range is the spread between reports
MEASURED_QUANTITY: melting point

As a guide, the following entries are already answered.
> print(dat)
                      compound  measured.quantity     meas.value
1        O=C(c1ccccc1)C1CCCCC1      melting point    55 to 56 °C
2    O=C(c1ccccc1)c1ccc(Br)cc1      melting point  81 to 82.5 °C
3  CN[C@@H](C)[C@H](O)c1ccccc1      melting point    34 to 36 °C
4         O=C(O)COc1cccc(Cl)c1      melting point  108 to 110 °C
5           COc1cccc(C(N)=O)c1      melting point  133 to 134 °C
6                Cc1ccc(N)cc1F      melting point    31 to 33 °C

### Prompt Reported melting point for O=C1C=C(Cl)C(=O)C=C1Cl : what is it?
### Response 160 to 162 °C

### Prompt Repeat for the following compound: Oc1ccc(Cc2ccc(O)cc2)cc1
### Response 161 to 162 °C

### Prompt Same question, CCOS(=O)(=O)OCC this time
### Response -25 to -24 °C

====

Listed here are compounds together with their documented melting point.
- TEST_PARAMETERS: a range is the spread between reports

> print(dat)
      input.smiles       meas.value
1   CCCc1ccc(C)cc1  -64 to -63.6 °C
2  CCC(=O)c1ccccc1      18 to 19 °C

### Prompt Consider the compound CCc1cc(C)cc(CC)c1 and give its measured melting point.
### Response -74.1 to -74 °C

### Prompt Also O=CN1CCOCC1 ?
### Response 21 to 22 °C

### Prompt Ok, now Oc1cc(O)c2ccccc2c1
### Response 124 to 125 °C

### Prompt What do you get for Nc1cccc(Cl)c1Cl ?
### Response 22 to 24 °C

### Prompt Same question for O=[N+]([O-])c1c(Cl)cc(Cl)cc1Cl please.
### Response 71 to 72 °C

### Prompt And COCC(=O)O ?
### Response 7.7 to 8 °C

### Prompt Please answer likewise for O=C1CCCCCCCCCCC1
### Response 60 to 61 °C

### Prompt # repeat for COc1cc(Cl)cc(Cl)c1
### Response 40 to 41 °C

### Prompt O=Cc1cccc(I)c1 , same question.
### Response 56 to 58 °C
